# targetUnderTest: T1, hDNA2 D277A (nuclease-deficient) (Homo sapiens, UniProt P51530 1-1060, D277A)
# T1 sequence: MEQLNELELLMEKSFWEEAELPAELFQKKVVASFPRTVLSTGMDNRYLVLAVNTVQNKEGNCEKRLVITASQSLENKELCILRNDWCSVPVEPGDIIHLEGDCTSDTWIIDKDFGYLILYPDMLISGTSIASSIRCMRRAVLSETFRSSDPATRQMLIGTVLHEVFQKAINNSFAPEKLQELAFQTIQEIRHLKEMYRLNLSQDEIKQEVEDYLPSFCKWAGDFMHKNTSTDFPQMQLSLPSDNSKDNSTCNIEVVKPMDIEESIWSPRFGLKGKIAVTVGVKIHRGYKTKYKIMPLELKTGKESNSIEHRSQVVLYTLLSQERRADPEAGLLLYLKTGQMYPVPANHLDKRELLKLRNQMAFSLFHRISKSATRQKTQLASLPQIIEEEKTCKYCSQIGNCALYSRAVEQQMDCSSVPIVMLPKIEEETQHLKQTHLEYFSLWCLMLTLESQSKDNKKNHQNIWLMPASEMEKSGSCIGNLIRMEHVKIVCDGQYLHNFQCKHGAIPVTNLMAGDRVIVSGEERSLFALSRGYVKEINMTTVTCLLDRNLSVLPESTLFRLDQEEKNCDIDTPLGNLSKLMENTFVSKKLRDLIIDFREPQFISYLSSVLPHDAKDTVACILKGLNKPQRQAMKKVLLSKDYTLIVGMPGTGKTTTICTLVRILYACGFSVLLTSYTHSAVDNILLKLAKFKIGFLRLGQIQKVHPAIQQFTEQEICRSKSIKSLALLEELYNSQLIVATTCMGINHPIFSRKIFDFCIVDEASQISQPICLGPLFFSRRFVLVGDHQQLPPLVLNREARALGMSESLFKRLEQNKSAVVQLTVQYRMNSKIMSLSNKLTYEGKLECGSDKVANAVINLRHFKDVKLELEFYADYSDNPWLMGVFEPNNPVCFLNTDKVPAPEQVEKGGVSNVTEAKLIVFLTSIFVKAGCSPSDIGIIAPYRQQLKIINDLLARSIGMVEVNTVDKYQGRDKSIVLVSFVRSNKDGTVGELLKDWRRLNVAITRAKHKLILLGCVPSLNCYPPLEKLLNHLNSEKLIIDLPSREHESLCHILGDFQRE
# measurementDescription: EMSA; no RPA; 25 mM Tris-acetate pH 7.5, 2 mM Mg acetate, 1 mM DTT, 0.1 mg/ml BSA, 1 nM DNA, 37 C 30 min; 6% PAGE in TAE on ice
# conditionDescription: protein: recombinant; tags: N-terminal 6xHis, C-terminal FLAG; label: 5' 32P; single strand
readout: Kd

Report Kd, nothing else, for this binder: GACGTCATAGACGATTACATTGCTAGGACATGCTGTCTAGAGACTATCGC (ssDNA) [ssDNA 50 nt (X12-3)] ~2 nM
